test: Retention time under basic conditions using 20 mM Na2HPO4 (pH9.9)/MeOH (1:1) mobile phase by HPLC method; assay type: physicochemical; conditions: buffer, pH 9.9
Quick rule: Retention_time of at least 5 min means yes, below that means no.

Please review the following examples before continuing.
{"columns": ["smiles.str", "label.value"],
 "data": [
  ["CN1CCC[C@H]1c1cccnc1", "yes"],
  ["O=[N+]([O-])NC1=NCCN1Cc1ccc(Cl)nc1", "no"],
  ["N=C1SCCN1Cc1ccc(Cl)nc1", "no"],
  ["N=C1NCCN1Cc1ccc(Cl)nc1", "no"],
  ["N#C/N=C1\\SCCN1Cc1ccc(Cl)nc1", "yes"]
]}

Query compound follows.
Incoming: Given the entry "N=c1sccn1Cc1ccc(Cl)nc1" , answer whether its Retention_time meets or surpasses 5 min.
Outgoing: no

* * *

target: Acetylcholine receptor subunit beta-like 2 (Drosophila melanogaster, UniProt P25162); assay: Inhibition of [3H]IMI binding to Drosophila melanogaster neuronal acetylcholine receptor
Sequence (P25162 whole entry): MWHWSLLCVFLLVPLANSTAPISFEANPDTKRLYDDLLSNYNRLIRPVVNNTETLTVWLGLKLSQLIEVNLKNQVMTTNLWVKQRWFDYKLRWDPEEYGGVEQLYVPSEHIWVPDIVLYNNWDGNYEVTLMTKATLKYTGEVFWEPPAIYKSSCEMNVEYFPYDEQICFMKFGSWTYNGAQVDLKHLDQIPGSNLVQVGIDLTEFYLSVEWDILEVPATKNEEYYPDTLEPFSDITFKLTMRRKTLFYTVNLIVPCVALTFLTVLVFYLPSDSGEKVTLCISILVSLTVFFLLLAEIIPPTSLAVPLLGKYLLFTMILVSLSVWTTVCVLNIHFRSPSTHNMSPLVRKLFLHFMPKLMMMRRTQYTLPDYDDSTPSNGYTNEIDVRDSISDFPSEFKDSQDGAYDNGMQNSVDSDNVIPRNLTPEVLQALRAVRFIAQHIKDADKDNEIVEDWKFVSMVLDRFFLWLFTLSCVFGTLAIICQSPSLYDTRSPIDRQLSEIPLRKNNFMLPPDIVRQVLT
measured.property: IC50
Hey, just the number and the unit after it is fine.

{"columns": ["compound", "measured.property", "observed.value"],
 "data": [
  ["N=C1NCCN1Cc1ccc(Cl)nc1", "IC50", "1530 nM"]
]}

Incoming: Could you tell me which IC50 is on file for "O=[N+]([O-])NC1=NCCN1Cc1ccc(Cl)nc1" ?
Outgoing: 4.6 nM

Incoming: Could you tell me which IC50 is on file for Clc1ccc(C2CC3CCC2N3)cn1 (racemic) [EPIBATIDINE] ?
Outgoing: 430 nM

Incoming: Could you tell me which IC50 is on file for "N=c1sccn1Cc1ccc(Cl)nc1" ?
Outgoing: 185 nM

Incoming: Could you tell me which IC50 is on file for "N#C/N=C1\SCCN1Cc1ccc(Cl)nc1" ?
Outgoing: 2.7 nM

Incoming: Could you tell me which IC50 is on file for "N=C1SCCN1Cc1ccc(Cl)nc1" ?
Outgoing: 200 nM

Incoming: Could you tell me which IC50 is on file for "CN1CCC[C@H]1c1cccnc1" ?
Outgoing: 4000 nM

Incoming: Could you tell me which IC50 is on file for "O=[N+]([O-])/C=C1/NCCCN1Cc1ccc(Cl)nc1" ?
Outgoing: 0.37 nM

* * *

assay: Toxicity in ip dosed Mus musculus (mouse); assay type: organism-based; conditions: in vivo
measured.property: log10 LD50 (log10 of the value in mg/kg)
On a log10 scale: recorded LD50, unit mg/kg.

// solved cases for log10 LD50 follow
{"columns": ["molecule", "log10 LD50"],
 "data": [
  ["O=[N+]([O-])/C=C1/NCCCN1Cc1ccc(Cl)nc1", 1.00],
  ["N=C1NCCN1Cc1ccc(Cl)nc1 [DESNITROIMIDACLOPRID]", 0.78],
  ["CN1CCC[C@H]1c1cccnc1 [NICOTINE]", 0.78],
  ["Clc1ccc(C2CC3CCC2N3)cn1 (racemic) [EPIBATIDINE]", -1.22]
]}

Incoming: Could you tell me which log10 LD50 is on file for O=[N+]([O-])NC1=NCCN1Cc1ccc(Cl)nc1 [IMIDACLOPRID] ?
Outgoing: 1.60

Incoming: Could you tell me which log10 LD50 is on file for N#C/N=C1\SCCN1Cc1ccc(Cl)nc1 [THIACLOPRID] ?
Outgoing: 1.40

Incoming: Could you tell me which log10 LD50 is on file for "N=c1sccn1Cc1ccc(Cl)nc1" ?
Outgoing: -0.15

Incoming: Could you tell me which log10 LD50 is on file for N=C1SCCN1Cc1ccc(Cl)nc1 [DESCYANOTHIACLOPRID] ?
Outgoing: -0.15

Where these numbers come from: ChEMBL document CHEMBL3045796
